# assay-summary: Oral bioavailability in C57BL/6 mouse at 100 mg/kg by LC-MS/MS analysis
# Assay type: ADME, organism-based
# condition-summary: in vivo
measured-endpoint: bioavailability
Your reply should be a number followed by the unit it is expressed in.

GET /values?readout=bioavailability&item= CC(C)c1cc(-c2ccc3c(c2)[C@H](N)CO3)cc([C@H](O)Cn2ccc3cccc(C(=O)O)c32)c1 100%

----------
Parameter: IC50. Scope: all listed entries.
# assay-system: Urokinase-type plasminogen activator (Homo sapiens, UniProt P00749)
# Type: ADME
State the answer as a number, implicitly in nM.

Look over these answered cases.
INSERT INTO assay_data (structure_notation, readout_unit, assay_value) VALUES
  ('CC1(C)COc2c(COc3ccccc3CC(=O)O)cc(-c3ccc4c(c3)[C@H](N)CO4)cc21', 'nM', 16),
  ('CC(C)c1cc(COc2ccccc2CC(=O)O)cc(-c2ccc3c(c2)[C@H](N)CO3)c1', 'nM', 47);

Lab note: need IC50 with Urokinase-type plasminogen activator (Homo sapiens, UniProt P00749) for entry CC1(C)COc2c(COc3ccccc3CC(=O)O)cc(-c3ccc4c(c3)[C@H](N)CCO4)cc21 , please look it up. 950
